- Test system: HL-60
- Protocol: NCI tumour cell line growth inhibition, 48 h
Calls of active or inactive are those of the source. No stated cut-off is given here; in the data, active = GI50 up to about 1.1 µM and inactive = higher.
Catalogue of compounds with associated GI50

Dear colleague, I am looking for the recorded GI50 of the following compound: O=C1c2ccccc2OP(=O)(OCC(F)(F)F)OC1(C(F)(F)F)C(F)(F)F (stereo not given)
> 100 µM (inactive)

Look up GI50 for this compound: CCN1CCN(c2ccc(Nc3ccnc4ccc5nn(C)nc5c34)cc2)CC1
94.8 µM (inactive)

----------
- System: HL-60
- Protocol: NCI tumour cell line growth inhibition, 48 h
Active and inactive are the calls of the source. Cut-off read from the data, not from the text of the source: active = GI50 up to about 1.1 µM and inactive = higher.
Parameter measured: GI50

Recorded results for 5 molecules are shown here.
Quick one: GI50 for [N-]=[N+]=CC(=O)OC1CCOCC1 ?
> 100 µM (inactive)

Using the record for O=[N+]([O-])c1cccc(-c2ncc3c(n2)-c2ccccc2C3)c1 , report its GI50.
> 100 µM (inactive)

Please report the recorded GI50 for NC1CCCCC1NCCNC1CCCCC1N (configuration not stated) .
> 100 µM (inactive)

Consider the molecule C/C(=N\N(c1ccccc1)c1ccccc1)c1c(O)cc(C)oc1=O and give its measured GI50.
> 10 µM (inactive)

Could you share which GI50 value was measured for O=[N+]([O-])c1cccc(C2SCc3nc4ccccc4n32)c1 (configuration not stated) ?
54.3 µM (inactive)

Please look at the following molecule next.
Reported GI50 for Cc1cc2c(=O)cc(-c3ccncc3)oc2c(C(N)=O)c1C : what is it?
> 100 µM (inactive)

----------
- Test system: M14
- Protocol: NCI tumour cell line growth inhibition, 48 h
Activity calls are given as the source filed them. Cut-off read from the data, not from the text of the source: active = GI50 up to about 1.1 µM and inactive = higher.
Parameter measured: GI50

Form field: reported GI50 of NC(=O)NC1C(C(N)=O)N(Cc2ccccc2)C(=O)N1Cc1ccccc1 (stereo not given)
> 100 µM (inactive)

Look up GI50: COc1cc2ccc3c4ccccc4cnc3c2cc1OC
> 100 µM (inactive)

What measured GI50 goes with C=CCN1C(=O)C/C(=C2/CCC(=O)N2CC=C)C1=O ?
> 100 µM (inactive)

Param item = O=C(O)Cn1ccc(=O)c2c([N+](=O)[O-])cccc21 ; retrieve measured GI50.
> 100 µM (inactive)

Fill blank: measured GI50 of the compound Cc1ccc2nc(CC(=O)c3ccc4ccccc4c3)c(O)nc2c1 is ____.
> 100 µM (inactive)

Others:
Give its GI50 value. Item: CCC(C)(C)C(=O)O[C@H]1C[C@@H](C)C=C2C=C[C@H](C)[C@H](CC[C@@H]3C[C@@H](O)CC(=O)O3)[C@H]21 [SIMVASTATIN]
2.25 µM (inactive)

I would be grateful if you could share the reported GI50 for COCCN1C2=CCCCC2=Nc2c1nc(N)[nH]c2=O .
> 100 µM (inactive)

----------
- Test system: OVCAR-4
- Protocol: NCI tumour cell line growth inhibition, 48 h
The source made the active and inactive calls. No stated cut-off is given here; in the data, active = GI50 up to about 1.1 µM and inactive = higher. Where a SMILES comes first, the peptide text is derived from it. [ ]: non-standard residue; d: D form. The star is where a group is joined. ξ: configuration not given here. ξPhe(4-NO2) = NC(Cc1ccc([N+](=O)[O-])cc1)C(=O)O; Boc = CC(C)(C)OC(=O)*; OBn = c1ccc(CO*)cc1
Parameter measured: GI50

Please tell me: GI50 of CNS(=O)(=O)NNS(=O)(=O)c1ccc(OC)cc1 , system OVCAR-4?
> 100 µM (inactive)

Write down the reported GI50 of CCO/C=N/NC(=O)CSc1nc2ccc(I)cc2c(=O)n1Cc1ccccc1 , test system: OVCAR-4.
> 100 µM (inactive)

---
Identify the measured GI50 of Cc1nn(C(=O)c2ccc(Cl)cc2)c2c1C(c1ccco1)SC(=N)N2 (configuration not stated) for OVCAR-4.
> 10 µM (inactive)

Recorded GI50 for CC1=CC(=O)NP(=O)(Oc2ccc(Cl)cc2)N1 (configuration not stated) with OVCAR-4, please?
> 100 µM (inactive)

OVCAR-4 / GI50 / CN(C(=O)c1ccncc1)c1ccccc1 : value?
> 100 µM (inactive)

Field: GI50 (OVCAR-4). Entry: Cc1ccc2c(O)cc(-c3ccc(C)s3)nc2n1
12.7 µM (inactive)

Item COc1ccc(C(C#N)Cc2cc(OC)c(OC)c(OC)c2)cc1 (configuration not stated) with OVCAR-4 - GI50?
39.3 µM (inactive)

Identify the measured GI50 of COc1cc2oc3ccccc3c(=O)c2cc1CSc1ccccc1N for OVCAR-4.
13.6 µM (inactive)

What value of GI50 on OVCAR-4 does O=C1CC[C@H]2CNC(=O)C[C@H]2C1 have?
> 100 µM (inactive)

Missing value: GI50, OVCAR-4, entry CC(C)(C)C(=O)O[C@@H]1COC2C(O)COC21 (some centres not stated) . Fill in?
> 100 µM (inactive)

Identify the measured GI50 of CC(C)(C)OC(=O)NC(Cc1ccc([N+](=O)[O-])cc1)C(=O)NCC(=O)OCc1ccccc1 (configuration not stated) (Boc-[ξPhe(4-NO2)]-Gly-OBn) for OVCAR-4.
25.9 µM (inactive)

Request - read-out GI50 | tested on OVCAR-4 | compound O=C1CCCc2cc3c(cc21)CC1(C3)Cc2cc3c(cc2C1)C(=O)CCC3
4.43 µM (inactive)

GI50 of Clc1ccc2c(c1)N(CCCN1CCCC13CCCCC3)c1ccccc1S2 on OVCAR-4?
15.4 µM (inactive)

Find the measured GI50: item Cc1cc(N(CCC#N)CCC#N)ccc1/C=C1N=C(/C=C\c2ccccc2)N(NC(=O)CC(=O)Nc2ccccc2Cl)C\1=O , target or system OVCAR-4.
> 100 µM (inactive)

GET /values?readout=GI50&system=OVCAR-4&item= O=C(O)CSc1nnc2c3ccccc3c3ccccc3c2n1
45.6 µM (inactive)

Can you look up GI50 on OVCAR-4 for NS(=O)(=O)c1nnc(NC(=O)CCC(=O)O)s1 ?
> 100 µM (inactive)

Tell me reported GI50 for O=C(Cc1ccccc1[N+](=O)[O-])C(CO)c1ccccc1[N+](=O)[O-] (configuration not stated) , tested with OVCAR-4.
96.4 µM (inactive)

Query GI50 on OVCAR-4 for CCOc1ccc(NC(=O)/C(CC(=O)c2c[n+]([O-])c3ccccc3[n+]2[O-])=N\OCCCc2ccccc2)cc1
> 100 µM (inactive)

What GI50 appears in the records for this compound with OVCAR-4? Cc1ccc(Nc2cn(COCc3ccccc3)c(=O)[nH]c2=O)cc1
> 100 µM (inactive)

Recall the recorded GI50 for CC1=CCC[C@H]2[C@](C)(CC3=CC(=O)C(Sc4ccccc4)=CC3=O)[C@@H](C)CC[C@]12C with OVCAR-4 and state it.
19.7 µM (inactive)

OVCAR-4 / GI50 / N#C/C(=C\NC(=S)Nc1ccc(S(=O)(=O)Nc2ccccn2)cc1)C(N)=O : value?
> 100 µM (inactive)

----------
- System: SK-MEL-28
- Protocol: NCI tumour cell line growth inhibition, 48 h
The source made the active and inactive calls. No stated cut-off is given here; in the data, active = GI50 up to about 1.1 µM and inactive = higher.
Parameter measured: GI50

Past entries and their recorded results:
Form field: reported GI50 of O=C(Cc1ccccc1[N+](=O)[O-])C(CO)c1ccccc1[N+](=O)[O-] (stereo not given)
> 100 µM (inactive)

Suppose we examine the compound C[C@@]1(O)C[C@@H](N2C(=O)O[C@@H](c3ccccc3)[C@H]2c2ccccc2)[C@@H]1COCc1ccccc1 ; what GI50 value has been reported?
18.2 µM (inactive)

Further cases:
For N#CC(C#N)c1ccc(C(=O)N2CCC[C@H]2CO)cc1 , what is its reported GI50?
> 100 µM (inactive)

Returns the measured GI50 for the input compound. Input: CCOC(=O)c1cn(CC)c(=O)n2c1nc1ccccc12
> 100 µM (inactive)

Which GI50 value belongs to CCOC(=O)NN(C(=O)OCC)C(C(=O)C1=CCCCC1)N(NC(=O)OCC)C(=O)OCC ?
> 100 µM (inactive)

----------
Catalogue of molecules with associated GI50
- Test system: SK-OV-3
- Protocol: NCI tumour cell line growth inhibition, 48 h
The source made the active and inactive calls. Cut-off read from the data, not from the text of the source: active = GI50 up to about 1.1 µM and inactive = higher.

Record excerpt, results attached:
Look at this molecule and give its reported GI50. CC(C)C(/C=C/c1ccccc1)=N\NC(=O)N/N=C(/C=C/c1ccccc1)C(C)C
40.2 µM (inactive)

Please report the recorded GI50 for COc1cc2c(cc1OCCCOS(C)(=O)=O)N=C[C@@H]1CCCN1C2=O .
> 100 µM (inactive)

GET /values?readout=GI50&item= O=C(CCC(=O)Nc1ccc(Cl)cc1)CC(=O)c1ccc(F)cc1
> 100 µM (inactive)

What value of GI50 has been recorded for this entry: NS(=O)(=O)c1nnc(NC(=O)CCC(=O)O)s1
> 100 µM (inactive)

Name the recorded GI50 for Fc1cc(-c2ncc(Cl)cc2Cl)c2cccccc1-2 .
> 100 µM (inactive)

Quick check: GI50 of CC(C)(CO)N1CCN(C(S)=Nc2ccccc2)CC1 ?
> 100 µM (inactive)

New cases:
// GI50 lookup, key: CC(=O)NNc1nc(C)c(C(=O)NNC(=O)C(=O)Nc2ccc([N+](=O)[O-])cc2[N+](=O)[O-])s1
> 100 µM (inactive)

For the molecule CCNc1nc(N)c(C(=O)c2cccs2)s1 , what GI50 is on record?
36.4 µM (inactive)

Recorded GI50 for NC1CCCCC1NCCNC1CCCCC1N (stereo unspecified) , please?
> 100 µM (inactive)

Which GI50 is reported for this molecule? FC(F)(F)c1nc2ccc(SSc3ccc4nc(C(F)(F)F)[nH]c4c3)cc2[nH]1
> 10 µM (inactive)

For O=C(N/N=C/c1cc(Br)ccc1O)N/N=C/c1cc(Br)ccc1O , what is its reported GI50?
69 µM (inactive)
